# experimental.protocol: Biodistribution in PC-3 tumor-bearing NSG mice (Example 2)
# Type: in vivo
# condition: male, NSG (NOD.Cg-Prkdc^scid Il2rg^tm1Wjl/SzJ), mouse, fat, iv, total radioactivity, 120 MIN p.i.; read-out: Biodistribution FAT, Mean

compound	scale.unit	tissue uptake at 2 h
CC(C)C[C@@H](CN1CCC[C@H]1C(N)=O)NC(=O)[C@H](Cc1c[nH]cn1)NC(=O)CNC(=O)[C@@H](NC(=O)[C@H](C)NC(=O)[C@H](Cc1c[nH]c2ccccc12)NC(=O)[C@H](CCC(N)=O)NC(=O)[C@@H](Cc1ccccc1)NC(=O)CN1CCC(NC(=O)CN2CCN(CC(=O)O)CCN(CC(=O)O)CCN(CC(=O)O)CC2)CC1)C(C)C [^68Ga-ProBOMB2, metal not drawn]	%ID/g	0.02

---

# experimental.protocol: Biodistribution in PC-3 tumor-bearing NSG mice (Example 2)
# Assay type: in vivo
# condition: male, NSG (NOD.Cg-Prkdc^scid Il2rg^tm1Wjl/SzJ), mouse, tumor/pancreas, iv, total radioactivity, TUMOR-TO-PANCREAS ratio, Mean, 60 MIN BLOCKED, co-injection of 100 μg of [D-Phe^6,Leu-NHEt^13,des-Met^14]Bombesin(6-14); read-out: TUMOR-TO-[…] ratio, Mean
reported.property: tissue to tissue ratio at 1 h

molecule	recorded.value
CC(C)C[C@@H](CN1CCC[C@H]1C(N)=O)NC(=O)[C@H](Cc1c[nH]cn1)NC(=O)CNC(=O)[C@@H](NC(=O)[C@H](C)NC(=O)[C@H](Cc1c[nH]c2ccccc12)NC(=O)[C@H](CCC(N)=O)NC(=O)[C@@H](Cc1ccccc1)NC(=O)CN1CCC(NC(=O)CN2CCN(CC(=O)O)CCN(CC(=O)O)CCN(CC(=O)O)CC2)CC1)C(C)C [^68Ga-ProBOMB2, metal not drawn]	6.17

---

# experimental.protocol: Biodistribution in PC-3 tumor-bearing NSG mice (Example 2)
# Assay type: in vivo
# condition: male, NSG (NOD.Cg-Prkdc^scid Il2rg^tm1Wjl/SzJ), mouse, whole blood, iv, total radioactivity, 120 MIN p.i.; read-out: Biodistribution BLOOD, Mean

molecule	scale.unit	tissue uptake at 2 h
CC(C)C[C@@H](CN1CCC[C@H]1C(N)=O)NC(=O)[C@H](Cc1c[nH]cn1)NC(=O)CNC(=O)[C@@H](NC(=O)[C@H](C)NC(=O)[C@H](Cc1c[nH]c2ccccc12)NC(=O)[C@H](CCC(N)=O)NC(=O)[C@@H](Cc1ccccc1)NC(=O)CN1CCC(NC(=O)CN2CCN(CC(=O)O)CCN(CC(=O)O)CCN(CC(=O)O)CC2)CC1)C(C)C [^68Ga-ProBOMB2, metal not drawn]	%ID/g	0.13

---

# experimental.protocol: Biodistribution in PC-3 tumor-bearing NSG mice (Example 2)
# Assay type: in vivo
# condition: male, NSG (NOD.Cg-Prkdc^scid Il2rg^tm1Wjl/SzJ), mouse, spleen, iv, total radioactivity, 120 MIN p.i.; read-out: Biodistribution SPLEEN, Mean
reported.property: tissue uptake at 2 h (%ID/g)

compound	reported.property	recorded.value
CC(C)C[C@@H](CN1CCC[C@H]1C(N)=O)NC(=O)[C@H](Cc1c[nH]cn1)NC(=O)CNC(=O)[C@@H](NC(=O)[C@H](C)NC(=O)[C@H](Cc1c[nH]c2ccccc12)NC(=O)[C@H](CCC(N)=O)NC(=O)[C@@H](Cc1ccccc1)NC(=O)CN1CCC(NC(=O)CN2CCN(CC(=O)O)CCN(CC(=O)O)CCN(CC(=O)O)CC2)CC1)C(C)C [^68Ga-ProBOMB2, metal not drawn]	tissue uptake at 2 h	0.11

---

# experimental.protocol: Biodistribution in PC-3 tumor-bearing NSG mice (Example 2)
# Assay type: in vivo
# condition: male, NSG (NOD.Cg-Prkdc^scid Il2rg^tm1Wjl/SzJ), mouse, tumor/bone, iv, total radioactivity, 60 MIN p.i.; read-out: TUMOR-TO-BONE ratio, Mean
# Experimental: […]. The mice were sacrificed by CO2 inhalation at 1 h, and 2 h p.i. Blood was collected by cardiac puncture. Organs/tissues were harvested, rinsed with PBS, blotted dry, and weighed. The activity in tissues was assayed by gamma counter and expressed as the percentage injected dose per gram of tissue (% ID/g).

compound	tissue to tissue ratio at 1 h
CC(C)C[C@@H](CN1CCC[C@H]1C(N)=O)NC(=O)[C@H](Cc1c[nH]cn1)NC(=O)CNC(=O)[C@@H](NC(=O)[C@H](C)NC(=O)[C@H](Cc1c[nH]c2ccccc12)NC(=O)[C@H](CCC(N)=O)NC(=O)[C@@H](Cc1ccccc1)NC(=O)CN1CCC(NC(=O)CN2CCN(CC(=O)O)CCN(CC(=O)O)CCN(CC(=O)O)CC2)CC1)C(C)C [^68Ga-ProBOMB2, metal not drawn]	89.9

---

# experimental.protocol: Biodistribution in PC-3 tumor-bearing NSG mice (Example 2)
# Assay type: in vivo
# condition: male, NSG (NOD.Cg-Prkdc^scid Il2rg^tm1Wjl/SzJ), mouse, tumor/bone, iv, total radioactivity, 120 MIN p.i.; read-out: TUMOR-TO-BONE ratio, Mean

compound	tissue to tissue ratio at 2 h
CC(C)C[C@@H](CN1CCC[C@H]1C(N)=O)NC(=O)[C@H](Cc1c[nH]cn1)NC(=O)CNC(=O)[C@@H](NC(=O)[C@H](C)NC(=O)[C@H](Cc1c[nH]c2ccccc12)NC(=O)[C@H](CCC(N)=O)NC(=O)[C@@H](Cc1ccccc1)NC(=O)CN1CCC(NC(=O)CN2CCN(CC(=O)O)CCN(CC(=O)O)CCN(CC(=O)O)CC2)CC1)C(C)C [^68Ga-ProBOMB2, metal not drawn]	173

---

# experimental.protocol: Biodistribution in PC-3 tumor-bearing NSG mice (Example 2)
# Type: in vivo
# condition: male, NSG (NOD.Cg-Prkdc^scid Il2rg^tm1Wjl/SzJ), mouse, brain, iv, total radioactivity, 60 MIN BLOCKED, co-injection of 100 μg of [D-Phe^6,Leu-NHEt^13,des-Met^14]Bombesin(6-14); read-out: Biodistribution BRAIN, Mean
reported.property: tissue uptake at 1 h (%ID/g)

compound	recorded.value
CC(C)C[C@@H](CN1CCC[C@H]1C(N)=O)NC(=O)[C@H](Cc1c[nH]cn1)NC(=O)CNC(=O)[C@@H](NC(=O)[C@H](C)NC(=O)[C@H](Cc1c[nH]c2ccccc12)NC(=O)[C@H](CCC(N)=O)NC(=O)[C@@H](Cc1ccccc1)NC(=O)CN1CCC(NC(=O)CN2CCN(CC(=O)O)CCN(CC(=O)O)CCN(CC(=O)O)CC2)CC1)C(C)C [^68Ga-ProBOMB2, metal not drawn]	0.02

---

# experimental.protocol: Biodistribution in PC-3 tumor-bearing NSG mice (Example 2)
# Assay type: in vivo
# condition: male, NSG (NOD.Cg-Prkdc^scid Il2rg^tm1Wjl/SzJ), mouse, whole blood, iv, total radioactivity, 60 MIN p.i.; read-out: Biodistribution BLOOD, Mean

molecule	tissue uptake at 1 h, %ID/g
CC(C)C[C@@H](CN1CCC[C@H]1C(N)=O)NC(=O)[C@H](Cc1c[nH]cn1)NC(=O)CNC(=O)[C@@H](NC(=O)[C@H](C)NC(=O)[C@H](Cc1c[nH]c2ccccc12)NC(=O)[C@H](CCC(N)=O)NC(=O)[C@@H](Cc1ccccc1)NC(=O)CN1CCC(NC(=O)CN2CCN(CC(=O)O)CCN(CC(=O)O)CCN(CC(=O)O)CC2)CC1)C(C)C [^68Ga-ProBOMB2, metal not drawn]	0.49

---

# experimental.protocol: Biodistribution in PC-3 tumor-bearing NSG mice (Example 2)
# Assay type: in vivo
# condition: male, NSG (NOD.Cg-Prkdc^scid Il2rg^tm1Wjl/SzJ), mouse, tumor/muscle, iv, total radioactivity, 60 MIN p.i.; read-out: TUMOR-TO-MUSCLE ratio, Mean
reported.property: tissue to tissue ratio at 1 h

compound	recorded.value
CC(C)C[C@@H](CN1CCC[C@H]1C(N)=O)NC(=O)[C@H](Cc1c[nH]cn1)NC(=O)CNC(=O)[C@@H](NC(=O)[C@H](C)NC(=O)[C@H](Cc1c[nH]c2ccccc12)NC(=O)[C@H](CCC(N)=O)NC(=O)[C@@H](Cc1ccccc1)NC(=O)CN1CCC(NC(=O)CN2CCN(CC(=O)O)CCN(CC(=O)O)CCN(CC(=O)O)CC2)CC1)C(C)C [^68Ga-ProBOMB2, metal not drawn]	102

---

# experimental.protocol: Biodistribution in PC-3 tumor-bearing NSG mice (Example 2)
# Type: in vivo
# condition: male, NSG (NOD.Cg-Prkdc^scid Il2rg^tm1Wjl/SzJ), mouse, tumor/pancreas, iv, total radioactivity, TUMOR-TO-PANCREAS ratio, Mean, 120 MIN p.i.; read-out: TUMOR-TO-[…] ratio, Mean
reported.property: tissue to tissue ratio at 2 h

compound	reported.property	recorded.value
CC(C)C[C@@H](CN1CCC[C@H]1C(N)=O)NC(=O)[C@H](Cc1c[nH]cn1)NC(=O)CNC(=O)[C@@H](NC(=O)[C@H](C)NC(=O)[C@H](Cc1c[nH]c2ccccc12)NC(=O)[C@H](CCC(N)=O)NC(=O)[C@@H](Cc1ccccc1)NC(=O)CN1CCC(NC(=O)CN2CCN(CC(=O)O)CCN(CC(=O)O)CCN(CC(=O)O)CC2)CC1)C(C)C [^68Ga-ProBOMB2, metal not drawn]	tissue to tissue ratio at 2 h	31.1
